The entries below come with measured z-score values attached.
- protocol_description: JC-1 mitochondrial signal, unstimulated HepG2 cells – cell-based, JC-1 fluorescence, 24 h, 100 nL compound, profiling panel (AID 1167); also: test concentration not given here
- details: HepG2 mitochondrial potential, higher = more signal
Enter a number only.

Example results:
Which z-score value belongs to C#C[C@H]1Oc2ccccc2S(=O)(=O)N2CCC[C@@H]12 ? -0.777

Which z-score value belongs to COCCCNC(=O)[C@]1(Cc2ccccc2N=[N+]=[N-])N=C(c2ccc(OCCCO)cc2)O[C@@H]1c1ccccc1CN=[N+]=[N-] ? 1.46

Which z-score value belongs to Cc1ccc(C(C)CC(O)C2C=CC3C(=O)NC(=O)C3N2Nc2ccccn2)o1 (stereo not given) ? 0.117

Continuing:
Which z-score value belongs to O=C1C2C=CC(C(O)c3ccccn3)N(Nc3ccccc3F)C2C(=O)N1c1ccccc1 (stereo not given) ? -0.793

Which z-score value belongs to O=C1c2ccccc2[C@@]2(Cc3ccccc3N(Cc3ccccc3)C2=O)[C@H](c2ccc(CO)cc2)N1Cc1ccccc1C(F)(F)F ? 1.28

====

- target_or_test_system: Torsin-1A-interacting protein 2 (Homo sapiens) (UniProt Q8NFQ8)
- Sequence (Q8NFQ8 whole entry, looked up): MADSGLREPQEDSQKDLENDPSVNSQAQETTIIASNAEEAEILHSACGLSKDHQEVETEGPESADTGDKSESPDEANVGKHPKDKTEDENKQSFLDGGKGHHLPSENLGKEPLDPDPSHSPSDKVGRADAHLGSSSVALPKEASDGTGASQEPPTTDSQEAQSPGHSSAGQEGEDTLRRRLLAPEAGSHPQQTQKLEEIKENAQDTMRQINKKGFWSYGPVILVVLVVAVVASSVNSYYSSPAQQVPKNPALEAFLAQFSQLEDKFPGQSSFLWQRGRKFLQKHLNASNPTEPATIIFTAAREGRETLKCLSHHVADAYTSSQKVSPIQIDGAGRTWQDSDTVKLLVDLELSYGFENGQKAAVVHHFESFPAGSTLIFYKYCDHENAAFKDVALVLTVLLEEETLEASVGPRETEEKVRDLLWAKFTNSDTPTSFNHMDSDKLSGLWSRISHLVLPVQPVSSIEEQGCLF
- protocol_description: small molecules binding lysate-expressed LULL1 – cell lysate, human LULL1 lysate, 635/667 nm fluorescence, primary screen (AID 1092);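 also: probe is lysate of COS7 cells overexpressing human LULL1; score merges per-feature 667 nm fluorescence with signal-to-noise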
- details: small-molecule microarray, hLULL1 lysate binding, 635 nm fluorescence; higher = more signal
Outcome: Satisfied for composite z-score of at least 2; Not satisfied for anything lower.

Does the compound CN(C)CCCC[C@@H]1NC(=O)[C@@H]2C[C@H](C(=O)NCCCCCCN)[C@H](c3ccc(O)cc3)N2C1=O have recorded composite z-score that is 2 or more? Satisfied

Does the compound O=c1cccc(-c2ccccc2)o1 have recorded composite z-score that is 2 or more? Not satisfied

Does the compound Oc1ccc2cc[n+](Cc3cccc(OC(F)(F)F)c3)cc2c1 have recorded composite z-score that is 2 or more? Not satisfied

Does the compound CCCCN1CC=CC23O[C@@H]4/C=C\CCCOC(=O)C4[C@H]2C(=O)N(C(C)CO)[C@@H]3C1=O (stereo partly specified) have recorded composite z-score that is 2 or more? Not satisfied

Does the compound COCC1C2CC[C@H]3C(OCc4ccc(F)cc4C(F)(F)F)OC[C@]4(C)[C@H]3C2=C(CN4C(=O)OC(C)(C)C)[C@H](C)C1COC (stereo partly specified) have recorded composite z-score that is 2 or more? Satisfied

Does the compound COc1ccc([Si](C)(C)[C@@H]2[C@@H](CCO)O[C@]3(C(=O)N(Cc4ccccc4)c4ccc(N(C=O)c5ccccc5)cc43)[C@H]2C)cc1 have recorded composite z-score that is 2 or more? Not satisfied

Does the compound C=CCC(OC(C)=O)[C@@H]1[C@@H](N(Cc2cc3ccccc3o2)C(=O)c2cccc3ccccc23)c2cc(OCCCO)ccc2N1C(=O)Cc1ccc(OC)cc1 (stereo partly specified) have recorded composite z-score that is 2 or more? Not satisfied

Does the compound Cc1c(NC(=O)/C(C#N)=C/C=C/c2ccccc2)c(=O)n(-c2ccccc2)n1C have recorded composite z-score that is 2 or more? Not satisfied

Continuing:
Does the compound O=C1c2ccccc2[C@](Cc2ccccc2I)(C(=O)O)[C@H](c2ccc(CO)cc2)N1Cc1ccccc1C(F)(F)F have recorded composite z-score that is 2 or more? Satisfied

Does the compound C=C[C@H](C)[C@H](O)c1ccc(OCCO)cc1 have recorded composite z-score that is 2 or more? Not satisfied

Does the compound O=C1O[C@H](c2ccccc2)[C@H](c2ccccc2)N2[C@H]1[C@@H](C(=O)Nc1nc3ccccc3s1)[C@]1(C(=O)Nc3ccc(C#CC4=CCCCC4)cc31)[C@H]2c1ccc(OCCO)cc1 have recorded composite z-score that is 2 or more? Satisfied

Does the compound COc1cc(CO)cc(I)c1O[C@H]1C=C(C(=O)NCCO)C[C@@H](N(CCc2cccc(F)c2)C(=O)CCC2CCCC2)[C@@H]1O have recorded composite z-score that is 2 or more? Not satisfied

Does the compound Cc1ccc(N2C(=O)c3ccccc3[C@@H](C(=O)NCC(C)C)[C@@H]2c2ccc(CO)cc2)nc1 have recorded composite z-score that is 2 or more? Satisfied

Does the compound Cc1ccc(C(C)CC(O)C2C=CC3C(=O)NC(=O)C3N2Nc2ccccn2)o1 (stereo unspecified) have recorded composite z-score that is 2 or more? Not satisfied

Does the compound CCCC[C@@H]1C[C@H]1[C@@H](NC(=O)c1ccccc1)c1ccc(-c2ccccc2)cc1 have recorded composite z-score that is 2 or more? Satisfied

Does the compound COCCOC(=O)N1C(=O)[C@@]2(c3cc(C#CC4(O)CCCCCC4)ccc31)[C@H](c1ccc(O)cc1)N1[C@H](c3ccccc3)[C@H](c3ccccc3)OC(=O)[C@H]1[C@@H]2C(=O)N1CCc2cc(OC)c(OC)cc2C1 have recorded composite z-score that is 2 or more? Satisfied

====

- protocol_description: small molecules captured by biotinylated probe aFGF2 – biochemical, small-molecule microarray, fluorescence 635/667, stem cell growth factor project, primary screen (AID 1067);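 also: measures binding of biotinylated aFGF2 protein to printed compounds on slides; z-score merges feature fluorescence and signal-to-noise across triplicate slides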
- details: higher = more signal
measurement_name: composite z-score
Enter a number only.

Example results:
Which composite z-score value belongs to COCCOC(=O)N1C(=O)[C@@]2(c3cc(C#CC4=CCCCC4)ccc31)[C@H](C(=O)N1CCN(c3ncccn3)CC1)[C@H]1C(=O)O[C@H](c3ccccc3)[C@H](c3ccccc3)N1[C@@H]2c1ccc(OCCO)cc1 ? 0.0533

Which composite z-score value belongs to C=CCC(OC(C)=O)[C@@H]1[C@@H](N(Cc2cc3ccccc3o2)C(=O)c2cccc3ccccc23)c2cc(OCCCO)ccc2N1C(=O)Cc1ccc2ccccc2c1 (stereo partly drawn) ? -0.0383

Which composite z-score value belongs to COCCCNC(=O)[C@@]1(Cc2ccccc2I)c2ccccc2C(=O)N(Cc2ccccc2)[C@H]1c1ccc(CO)cc1 ? -0.142

Which composite z-score value belongs to COc1ccc([Si](C)(C)[C@H]2[C@H](CC(=O)N3CCC[C@H]3CO)O[C@@]3(C(=O)N(c4ccccc4)c4ccccc43)[C@@H]2C)cc1 ? -0.17

Which composite z-score value belongs to [N-]=[N+]=NCc1ccccc1C[C@]1(C(=O)NCC(O)CO)COC(c2ccc(OCCCO)cc2)=N1 (stereo partly drawn) ? -0.033

Which composite z-score value belongs to [N-]=[N+]=Nc1ccccc1[C@@H]1OC(c2ccc(OCCCO)cc2)=N[C@]1(CCS(=O)(=O)c1ccccc1)C(=O)O ? 0.079

Which composite z-score value belongs to CCOC(=O)C[C@H]1[C@H](OC(=O)c2ccccc2-c2ccccc2)[C@@H](NC(=O)c2ccc(-c3ccccc3)cc2)c2cc(OCCCO)ccc2N1C(=O)c1ccccc1 ? -0.0428

Which composite z-score value belongs to COC(=O)[C@@]1(Cc2ccccc2)[C@H]2c3cc(C(=O)N(C)C)n(Cc4ccccc4)c3C[C@H]2CN1C(=O)c1ccccc1 ? 0.274

Continuing:
Which composite z-score value belongs to CN(C)CCCC[C@@H]1NC(=O)[C@@H]2C[C@H](C(=O)NCc3ccc(F)cc3)[C@H](c3cccc(OCCO)c3)N2C1=O ? -0.0707

Which composite z-score value belongs to C=CCOC(=O)[C@@H]1[C@H]2C(=O)O[C@H](c3ccccc3)[C@H](c3ccccc3)N2[C@H](c2ccc(OCCOC(=O)[C@H]3C[C@H]4C(=O)N[C@@H](CC(C)C)C(=O)N4[C@H]3c3cccc(OCCO)c3)cc2)[C@@]12C(=O)Nc1ccc(I)cc12 ? -0.0232

Which composite z-score value belongs to CC(C)NC(=O)[C@@H]1c2ccccc2C(=O)N(C2CCCCC2)[C@H]1c1ccc(CO)cc1 ? 0.0703

Which composite z-score value belongs to O=C(NCCN1CCOCC1)[C@@H]1c2ccccc2C(=O)N(Cc2cc(F)cc(C(F)(F)F)c2)[C@H]1c1ccc(CO)cc1 ? -0.188

Which composite z-score value belongs to [N-]=[N+]=NCc1ccccc1[C@H]1OC(c2ccc(OCCCO)cc2)=N[C@@]1(Cc1ccccc1)C(=O)O ? -0.0586

====

- protocol_description: Pseudomonas biofilm growth suppression – PAO1 strain, BacTiter-Glo luminescence, LB-PBS, primary screen (AID 1144)
- details: P. aeruginosa PAO1 biofilm, 12 h, higher = more signal
Active and inactive are the calls of the source. The rule behind the calls is not given here.
measurement_name: z-score

Example results:
Which z-score value belongs to CCOC(=O)C[C@H]1[C@H](OC(=O)c2ccccc2-c2ccccc2)[C@@H](NC(=O)c2ccc(-c3ccccc3)cc2)c2cc(OCCCO)ccc2N1C(=O)c1ccccc1 ? 0.945 (inactive)

Which z-score value belongs to C/C=C/[C@H](CCn1cc([C@H](O)c2ccccc2)nn1)[Si](C)(C)c1ccc(OC)cc1 ? 0.303 (inactive)

Which z-score value belongs to COC(=O)[C@@]1(Cc2ccccc2)[C@H]2c3cc(C(=O)N(C)C)n(Cc4cc(F)c(F)c(F)c4)c3C[C@H]2CN1C(=O)c1ccccc1 ? 0.301 (inactive)

Which z-score value belongs to CCCNC(=O)[C@@]1(c2ccc([N+](=O)[O-])cc2)CC(=O)N(CC23CC4CC(CC(C4)C2)C3)[C@@H]1c1ccc(CO)cc1I ? 0.468 (inactive)

Which z-score value belongs to CCOC(=O)C[C@H]1[C@H](OC(=O)c2ccc(C(=O)c3ccccc3)cc2)[C@@H](NC(=O)c2ccc3ccccc3n2)c2cc(OCCCO)ccc2N1C(=O)c1ccc2ccccc2n1 ? -0.754 (inactive)

Continuing:
Which z-score value belongs to C=CC[C@]1(C(=O)NCCN2CCOCC2)N=C(c2ccc(OCCCO)cc2)O[C@H]1c1ccccc1N=[N+]=[N-] ? 0.672 (inactive)

Which z-score value belongs to CN1C(=O)C2C=CC(C(O)c3ccc(Br)cc3)N(Nc3ccccc3)C2C1=O (stereo unspecified) ? -0.595 (inactive)

Which z-score value belongs to C=CCC(OC(C)=O)[C@@H]1[C@@H](N(Cc2ccc(-c3cccc(C(F)(F)F)c3)o2)C(=O)Cc2ccc(OC)cc2)c2cc(OCCCO)ccc2N1C(=O)Cc1ccc(OC)cc1 (stereo partly specified) ? -1.7 (inactive)

Which z-score value belongs to CCCNC(=O)[C@@]1(C)c2ccccc2C(=O)N(Cc2ccc(OC(F)(F)F)cc2)[C@H]1c1ccc(CO)cc1 ? 0.28 (inactive)

Which z-score value belongs to CCCNC(=O)[C@@]1(C)c2ccccc2C(=O)N(Cc2cc(F)cc(C(F)(F)F)c2)[C@H]1c1ccc(CO)cc1 ? -1.09 (inactive)
